measured on: Acetylcholinesterase (Homo sapiens, UniProt P22303)
Sequence (P22303 whole entry): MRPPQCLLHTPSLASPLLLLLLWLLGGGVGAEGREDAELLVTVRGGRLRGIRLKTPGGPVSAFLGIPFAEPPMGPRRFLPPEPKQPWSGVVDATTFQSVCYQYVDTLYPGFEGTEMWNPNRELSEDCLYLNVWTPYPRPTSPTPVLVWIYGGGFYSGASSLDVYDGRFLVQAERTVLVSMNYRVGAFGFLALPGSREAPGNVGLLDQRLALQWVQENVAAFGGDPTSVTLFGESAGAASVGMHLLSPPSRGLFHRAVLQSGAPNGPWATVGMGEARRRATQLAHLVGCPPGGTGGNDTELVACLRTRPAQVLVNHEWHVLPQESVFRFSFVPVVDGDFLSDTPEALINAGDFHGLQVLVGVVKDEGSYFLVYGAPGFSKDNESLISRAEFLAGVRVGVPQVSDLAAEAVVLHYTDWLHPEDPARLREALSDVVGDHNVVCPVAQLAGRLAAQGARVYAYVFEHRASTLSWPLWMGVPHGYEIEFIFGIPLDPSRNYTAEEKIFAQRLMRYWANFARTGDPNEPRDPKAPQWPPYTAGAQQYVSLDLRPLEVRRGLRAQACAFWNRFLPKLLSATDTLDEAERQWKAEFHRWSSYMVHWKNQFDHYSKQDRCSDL

molecule | unit | IC50
O=C(/C=C/c1ccc(-c2ccccc2)cc1)Nc1nc2ccc(O)cc2s1 | µM | 0.071
COc1ccc(C2CC(c3ccc(O)cc3)=NN2c2nc3ccc(C)cc3s2)cc1OC (configuration not stated) | µM | 8.69

###

measured on: UniProt:P56817
Sequence (P56817 whole entry): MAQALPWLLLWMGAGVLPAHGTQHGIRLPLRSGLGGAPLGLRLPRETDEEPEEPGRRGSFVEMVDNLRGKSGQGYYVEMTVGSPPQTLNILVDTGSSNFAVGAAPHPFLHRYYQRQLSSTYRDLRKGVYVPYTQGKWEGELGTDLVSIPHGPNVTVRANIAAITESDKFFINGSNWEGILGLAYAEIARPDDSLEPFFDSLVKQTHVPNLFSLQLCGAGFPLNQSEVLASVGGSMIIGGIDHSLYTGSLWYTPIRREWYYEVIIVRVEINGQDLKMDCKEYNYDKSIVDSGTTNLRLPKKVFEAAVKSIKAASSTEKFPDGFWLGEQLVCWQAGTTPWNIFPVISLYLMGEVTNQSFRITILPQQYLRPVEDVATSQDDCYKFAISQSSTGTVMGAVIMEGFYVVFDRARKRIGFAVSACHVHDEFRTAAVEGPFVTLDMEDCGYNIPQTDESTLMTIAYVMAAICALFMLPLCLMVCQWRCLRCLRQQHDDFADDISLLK
test details: Inhibition of BACE-1 (unknown origin) 667-676- (2, 4-dinitrophenyl) Lys-Arg-Arg amide trifluoroacetate as substrate preincubated for 15 mins followed by substrate addition and measured after 2 hrs by fluorescence spectrometric analysis
measurement setup: read-out: IC50
Threshold-based label: IC50 under 0.8 µM gives Met, IC50 not under 0.8 µM gives Not met.

compound | class assignment
O=C1S/C(=C\c2ccccc2)C(=O)N1CNc1nc(-c2cc(Cl)cs2)c(Nc2ccccc2)s1 | Met
O=C(CN1C(=O)S/C(=C\c2c[nH]c3ccccc23)C1=O)Nc1nc2ccccc2s1 | Not met
COc1cc(/C=C/C(=O)Nc2ccc3sc(NCN4C(=O)CSC4=O)nc3c2)ccc1O | Not met
O=C1S/C(=C\c2c[nH]c3ccccc23)C(=O)N1CNc1nc(-c2ccccc2)cs1 | Met
O=C(CN1C(=O)S/C(=C\c2c[nH]c3ccccc23)C1=O)Nc1nccs1 | Not met
